Test system: influenza A virus A/Aichi/2/68 (H3N2)
test description: microbe, parasite or virus in culture
Type: cell-based
condition details: Influenza A virus, H3N2, MDCK, 24 h; read-out: IC50 H3N2 Aichi strain
pIC50: −log10 of the molar value.
measured property: pIC50

Examples from the recorded data:
O=C(O)CN1CCN(CC(=O)O)C23c4c5c6c7c8c9c(c%10c%11c2c2c4c4c%12c5c5c6c6c8c8c%13c9c9c%10c%10c%11c%11c2c2c4c4c%12c%12c5c5c6c8c6c8c%13c9c9c%10c%10c%11c2c2c4c4c%12c5c6c5c8c9c%10c2c45)C713 (stereo not shown) : < 4.00
O=C(O)C1NC(c2ccccc2)C23c4c5c6c7c8c9c(c%10c%11c2c2c4c4c%12c5c5c6c6c8c8c%13c9c9c%10c%10c%11c%11c2c2c4c4c%12c%12c5c5c6c8c6c8c%13c9c9c%10c%10c%11c2c2c4c4c%12c5c6c5c8c9c%10c2c45)C713 (stereo not shown) : < 4.00
COC1Cc2cccc(c2)Oc2c(O)cccc2CCc2ccc(cc2)Oc2cc1cc(O)c2O (stereo not shown) [Marchantin E, reference compound] : 4.28

Now look at this entry.
Any idea what pIC50 was measured for O=C(O)C1NC(C(=O)O)C23c4c5c6c7c8c9c(c%10c%11c2c2c4c4c%12c5c5c6c6c8c8c%13c9c9c%10c%10c%11c%11c2c2c4c4c%12c%12c5c5c6c8c6c8c%13c9c9c%10c%10c%11c2c2c4c4c%12c5c6c5c8c9c%10c2c45)C713 (stereo not shown) ? < 4.00
